Entry source: patent US20060183921A1

List of melting point values.

Cc1cccc2c1C(=O)c1c-2csc1N [Example 2]
196 to 198 °C
Nc1scc2c1C(=O)c1ccc(Cl)cc1-2 [Example 5]
201 to 202 °C
Nc1scc2c1C(=O)c1c(Cl)cccc1-2 [Example 4]
183 to 185 °C
Nc1scc2c1C(=O)c1c-2ccc(Cl)c1Cl [Example 6]
254 to 255 °C

In plain terms, Cc1ccc2c(c1)-c1csc(N)c1C2=O [Example 3] has a documented melting point of 157 to 159 °C

* * *

EXPERIMENTAL_TARGET: human recombinant A1-adenosine receptors (Homo sapiens, UniProt P30542)
Construct: expressed in transfected cells; host or cells: CHO (Chinese hamster ovary) cells, CHO:huA1, under G-418 selection
Sequence (P30542 whole entry): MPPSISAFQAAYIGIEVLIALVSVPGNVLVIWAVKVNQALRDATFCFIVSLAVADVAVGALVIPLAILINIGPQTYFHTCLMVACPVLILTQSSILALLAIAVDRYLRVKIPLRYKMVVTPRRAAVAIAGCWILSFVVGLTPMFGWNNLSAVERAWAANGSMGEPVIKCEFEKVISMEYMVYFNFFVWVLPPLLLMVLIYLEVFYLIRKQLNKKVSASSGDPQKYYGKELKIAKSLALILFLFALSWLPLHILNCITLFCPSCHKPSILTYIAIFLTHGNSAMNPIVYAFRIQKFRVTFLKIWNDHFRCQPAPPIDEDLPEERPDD
TEST_PROTOCOL: Measurement of cAMP enhancement in CHO cells (allosteric enhancement, cAMP content by radioimmunoassay)
Type: cell-based
DETAILS: 1 μM test compound; CHO:huA1 cells; forskolin 1 μM, rolipram 20 μM, CPA 0.01 nM; 6 min at 36° C.; control 100%
Protocol: Chinese hamster ovary cells expressing human recombinant A1-adenosine receptors (CHO:huA1 cells) at a density of approximately 8000 fmol/mg protein were prepared as previously described (Kollias-Baker et al., (1997), J. Pharmacol. Exp. Ther. 281: 761-768) and aliquots of the cells at low passage numbers were frozen and stored in liquid nitrogen. […]
Recorded Change in cAMP Content from Control (Mean ± SEM) by entry
A number alone suffices; assume %.

As a guide, the following entries are already answered.
Nc1scc2c1C(=O)c1cc(Br)ccc1-2 [Example 21]
4
Nc1ccc2c(c1)C(=O)c1c-2csc1N [Example 24]
−1
Nc1scc2c1C(=O)c1c(Cl)cccc1C21SCCCS1 [Example 27]
8
Cc1sc(N)c(C(=O)c2cccc(C(F)(F)F)c2)c1C [PD 81,72, reference compound]
−32

Nc1scc2c1C(=O)c1ccc(Cl)c(Cl)c1-2 [Example 25] tested on human recombinant A1-adenosine receptors (Homo sapiens, UniProt P30542) gave Change in cAMP Content from Control (Mean ± SEM): −46
